- Species on record: Homo sapiens
- procedure.summary: Increase in doxorubicin accumulation in doxorubicin-co-incubated human 2008/P cells at 3 uM after 120 mins by spectrofluorimetry
- Assay type: functional
Active and inactive are the calls of the source. No cut-off for these calls is given here.
Form entry, call: pick from active, inactive

Assay outcome for COc1ccc(CCN(C)CCCC(C#N)(c2ccc(OC)c(OC)c2)C(C)C)cc1OC (centres undefined) : what was it?
inactive

Tell me the recorded outcome of this test for `Cc1ccc2oc(-c3ccc(OCCOCCOCCOCCOCCOc4ccc(-c5cc(=O)c6cc(C)ccc6o5)cc4)cc3)cc(=O)c2c1` .
active

Assay outcome for `CCCN(CCC)S(=O)(=O)c1ccc(C(=O)O)cc1` : what was it?
inactive

Would you mind telling me which call this test gave CN(C)C(=O)CCSC(SCCC(=O)O)c1cccc(/C=C/c2ccc3ccc(Cl)cc3n2)c1 (centres undefined) ?
inactive
